- target: ROS1 (Homo sapiens)
- Construct: purchased Carna Biosciences 08-163
- Sequence (P08922 28-2347): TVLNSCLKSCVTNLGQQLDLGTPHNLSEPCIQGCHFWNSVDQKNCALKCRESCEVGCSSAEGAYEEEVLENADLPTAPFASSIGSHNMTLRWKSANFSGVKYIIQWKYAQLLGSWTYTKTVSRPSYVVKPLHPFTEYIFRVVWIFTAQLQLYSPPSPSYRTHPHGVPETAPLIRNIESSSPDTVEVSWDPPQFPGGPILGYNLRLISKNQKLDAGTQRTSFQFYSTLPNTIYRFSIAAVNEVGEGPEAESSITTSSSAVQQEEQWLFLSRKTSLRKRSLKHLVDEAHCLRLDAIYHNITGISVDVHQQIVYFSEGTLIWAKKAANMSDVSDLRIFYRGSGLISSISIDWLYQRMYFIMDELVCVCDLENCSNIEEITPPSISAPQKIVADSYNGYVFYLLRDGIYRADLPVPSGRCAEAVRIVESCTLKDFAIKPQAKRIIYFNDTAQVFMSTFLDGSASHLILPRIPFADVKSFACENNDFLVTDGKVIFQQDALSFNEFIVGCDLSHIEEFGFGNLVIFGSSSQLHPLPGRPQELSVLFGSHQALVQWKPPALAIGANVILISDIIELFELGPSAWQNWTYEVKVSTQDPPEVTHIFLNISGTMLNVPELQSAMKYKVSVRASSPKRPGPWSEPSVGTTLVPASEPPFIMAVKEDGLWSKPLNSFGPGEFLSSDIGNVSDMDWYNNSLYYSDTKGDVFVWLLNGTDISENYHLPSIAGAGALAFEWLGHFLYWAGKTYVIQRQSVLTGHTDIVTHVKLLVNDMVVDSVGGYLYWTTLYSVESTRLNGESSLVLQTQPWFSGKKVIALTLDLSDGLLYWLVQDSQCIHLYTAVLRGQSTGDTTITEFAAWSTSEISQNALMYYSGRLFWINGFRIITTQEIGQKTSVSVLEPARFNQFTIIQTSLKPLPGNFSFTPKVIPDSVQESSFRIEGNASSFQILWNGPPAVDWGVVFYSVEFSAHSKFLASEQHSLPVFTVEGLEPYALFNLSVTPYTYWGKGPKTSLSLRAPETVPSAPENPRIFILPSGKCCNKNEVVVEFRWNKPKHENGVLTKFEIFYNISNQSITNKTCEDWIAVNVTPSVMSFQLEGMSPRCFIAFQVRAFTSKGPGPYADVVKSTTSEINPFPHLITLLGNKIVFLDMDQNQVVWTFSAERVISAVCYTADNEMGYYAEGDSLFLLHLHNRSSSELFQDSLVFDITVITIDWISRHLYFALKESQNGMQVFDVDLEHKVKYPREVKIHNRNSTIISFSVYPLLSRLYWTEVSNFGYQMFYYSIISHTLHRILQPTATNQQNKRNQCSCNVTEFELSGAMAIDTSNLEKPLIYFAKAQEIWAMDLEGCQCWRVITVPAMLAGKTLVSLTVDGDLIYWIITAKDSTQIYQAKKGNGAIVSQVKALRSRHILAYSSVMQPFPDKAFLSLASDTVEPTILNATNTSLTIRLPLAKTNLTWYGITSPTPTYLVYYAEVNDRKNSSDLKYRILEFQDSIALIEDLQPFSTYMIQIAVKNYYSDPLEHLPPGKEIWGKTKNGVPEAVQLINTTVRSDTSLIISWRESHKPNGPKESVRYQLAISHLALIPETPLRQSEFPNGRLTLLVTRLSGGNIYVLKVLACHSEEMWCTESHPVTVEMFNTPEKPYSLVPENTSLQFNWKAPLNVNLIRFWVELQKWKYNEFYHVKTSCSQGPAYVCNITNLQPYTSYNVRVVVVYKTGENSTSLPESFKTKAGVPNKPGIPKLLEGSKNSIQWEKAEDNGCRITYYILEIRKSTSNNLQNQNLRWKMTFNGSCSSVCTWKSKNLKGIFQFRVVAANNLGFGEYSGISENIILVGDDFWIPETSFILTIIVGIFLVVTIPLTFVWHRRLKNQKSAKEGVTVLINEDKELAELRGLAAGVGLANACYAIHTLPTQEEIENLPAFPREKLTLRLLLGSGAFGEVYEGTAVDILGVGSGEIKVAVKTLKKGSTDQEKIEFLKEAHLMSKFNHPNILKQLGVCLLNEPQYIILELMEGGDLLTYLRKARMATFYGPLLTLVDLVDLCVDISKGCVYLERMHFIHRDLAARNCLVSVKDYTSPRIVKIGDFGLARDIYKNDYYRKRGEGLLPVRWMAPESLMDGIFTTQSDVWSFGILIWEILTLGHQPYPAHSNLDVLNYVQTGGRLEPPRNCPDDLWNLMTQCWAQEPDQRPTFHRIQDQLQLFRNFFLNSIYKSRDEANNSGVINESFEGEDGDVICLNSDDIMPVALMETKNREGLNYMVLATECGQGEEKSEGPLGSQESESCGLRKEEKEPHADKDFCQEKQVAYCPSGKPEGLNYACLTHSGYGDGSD
- testProtocol: ROS1 autophosphorylation inhibitory activity evaluation (ADP-Glo)
- Type: biochemical
- measurementParameters: 200 nM inactive ROS1, ATP 1 mM, 25° C. 1.5 hours, ADP generated, four separate measurements
pIC50: −log10 of the molar value.
Known pIC50 of a selection of compounds
attributeMeasured: pIC50

INSERT INTO results (compound, attributemeasured, experimentalresult) VALUES
  ('C[C@@H](Nc1ccc2ncc(-c3ccc(OC[C@@H]4CCCN4)cc3)n2n1)c1ccccc1 [Example 19]', 'pIC50', '> 7.70'),
  ('CN(Cc1cccc(F)c1)c1ccc2ncc(-c3ccc(N4CC(C)(N)CC4=O)cc3)n2n1 (single isomer, unassigned) [Example 87]', 'pIC50', '7.00 to 7.70'),
  ('CNCCCOc1ccc(-c2cnc3ccc(N[C@H](C)c4cccc(F)c4)nn23)cc1 [Example 31]', 'pIC50', '> 7.70'),
  ('c1ccc(CNc2ccc3ncc(-c4ccc(OC[C@@H]5CCCN5)cc4)n3n2)cc1 [Example 1]', 'pIC50', '7.00 to 7.70'),
  ('CC(Oc1ccc2ncc(-c3ccc(N4C[C@@H](N)CC4=O)cc3)n2n1)c1cc(F)ccc1-n1nccn1 (stereo partly shown) [Example 114]', 'pIC50', '> 7.70'),
  ('N#Cc1cccc(COc2ccc3ncc(-c4ccc(N5C[C@@H](N)CC5=O)cc4)n3n2)c1 [Example 101]', 'pIC50', '7.00 to 7.70'),
  ('CC(Oc1ccc2ncc(-c3ccc(N4C[C@@H](N)CC4=O)cc3)n2n1)c1cncc(F)c1 (stereo partly shown) [Example 107]', 'pIC50', '> 7.70'),
  ('C[C@@H](N)COc1cccc(-c2cnc3ccc(N[C@H](C)c4cccc(F)c4)nn23)c1 [Example 60]', 'pIC50', '> 7.70'),
  ('C[C@@H](Nc1ccc2ncc(-c3ccc(O[C@H]4CCC[C@H]4N)cc3)n2n1)c1cccc(F)c1 [Example 40]', 'pIC50', '> 7.70'),
  ('Cc1ccc(F)cc1COc1ccc2ncc(-c3ccc(N4C[C@@H](N)CC4=O)cc3)n2n1 [Example 103]', 'pIC50', '7.00 to 7.70'),
  ('C[C@@H](Nc1ccc2ncc(-c3ccc(OCC(N)CO)cc3)n2n1)c1cccc(F)c1 (stereo partly shown) [Example 45]', 'pIC50', '> 7.70'),
  ('CNCCOc1ccc(-c2cnc3ccc(N[C@H](C)c4cccc(F)c4)nn23)cc1 [Example 29]', 'pIC50', '> 7.70'),
  ('C[C@@H](Nc1ccc2ncc(-c3ccc(O[C@@H]4CCC[C@@H]4N)cc3)n2n1)c1cccc(F)c1 [Example 36]', 'pIC50', '> 7.70'),
  ('C[C@@H](Nc1ccc2ncc(-c3ccc(OCCN)cc3)n2n1)c1cccc(F)c1 [Example 26]', 'pIC50', '> 7.70'),
  ('CN(Cc1cc(F)ccc1F)c1ccc2ncc(-c3ccc(N4C[C@@H](N)CC4=O)nc3)n2n1 [Example 129]', 'pIC50', '7.00 to 7.70'),
  ('CN(Cc1cncc(F)c1Cl)c1ccc2ncc(-c3ccc(N4C[C@@H](N)CC4=O)cc3)n2n1 [Example 126]', 'pIC50', '7.00 to 7.70'),
  ('CN(Cc1cncc(Cl)c1)c1ccc2ncc(-c3ccc(N4C[C@@H](N)CC4=O)cc3)n2n1 [Example 122]', 'pIC50', '7.00 to 7.70'),
  ('C[C@@H](Nc1ccc2ncc(-c3ccc(SC[C@@H]4CCCN4)cc3)n2n1)c1ccccc1 [Example 20]', 'pIC50', '7.00 to 7.70'),
  ('CN(Cc1cncc(Cl)c1)c1ccc2ncc(-c3ccc(N4CC(C)(N)CC4=O)cc3)n2n1 (stereo not shown) [Example 123]', 'pIC50', '6.82 to 7.00'),
  ('C[C@@H](Nc1ccc2ncc(-c3cc(F)cc(OC[C@@H]4CCN4)c3)n2n1)c1cccc(F)c1 [Example 62]', 'pIC50', '7.00 to 7.70'),
  ('OCCN1CCC[C@H]1COc1cccc(-c2cnc3ccc(NCc4ccccc4)nn23)c1 [Example 7]', 'pIC50', '6.82 to 7.00'),
  ('C[C@@H](Nc1ccc2ncc(-c3ccc(O[C@H]4C[C@@H](N)C4)cc3)n2n1)c1cccc(F)c1 [Example 61]', 'pIC50', '> 7.70'),
  ('CC(Oc1ccc2ncc(-c3ccc(N4C[C@@H](N)CC4=O)cc3)n2n1)c1cc(Cl)n(C)n1 (stereo partly shown) [Example 113]', 'pIC50', '> 7.70'),
  ('C[C@@H](Oc1ccc2ncc(-c3ccc(N4C[C@@H](N)CC4=O)nc3)n2n1)c1cccc(F)c1 [Example 127]', 'pIC50', '> 7.70'),
  ('c1ccc(CNc2ccc3ncc(-c4ccc(OC[C@@H]5CCNC5)cc4)n3n2)cc1 [Example 5]', 'pIC50', '7.00 to 7.70'),
  ('C[C@@H](Oc1ccc2ncc(-c3ccc(N4C[C@@H](N)CC4=O)c(F)c3)n2n1)c1cncc(F)c1 [Example 109]', 'pIC50', '6.82 to 7.00'),
  ('CN(Cc1cccc(C#N)c1)c1ccc2ncc(-c3ccc(N4C[C@@H](N)CC4=O)cc3)n2n1 [Example 121]', 'pIC50', '7.00 to 7.70'),
  ('CN(Cc1cncc(F)c1)c1ccc2ncc(-c3ccc(N4CC(C)(N)CC4=O)cc3)n2n1 (stereo not shown) [Example 119]', 'pIC50', '> 7.70'),
  ('CC(Oc1ccc2ncc(-c3ccc(N4C[C@@H](N)CC4=O)cc3)n2n1)c1cn(C(F)F)nn1 (stereo partly shown) [Example 115]', 'pIC50', '6.82 to 7.00'),
  ('C[C@@H](Nc1ccc2ncc(-c3ccc(OCCCN(C)C)cc3)n2n1)c1cccc(F)c1 [Example 70]', 'pIC50', '> 7.70'),
  ('C[C@@H](Nc1ccc2ncc(-c3ccc(OC[C@@H]4CCN4)cc3)n2n1)c1cccc(F)c1 [Example 30]', 'pIC50', '> 7.70');
